assayTarget: Glutamate receptor ionotropic, NMDA 1 (Rattus norvegicus, UniProt P35439)
testProtocol: Inhibition of [3H]glycine to glycine binding site, associated with the N-methyl-D-aspartate glutamate receptor 1 in crude synaptic membranes prepared from adult rat cerebral cortex.
measureName: Ki (µM)

[
  {
    "testSmiles": "O=C(/C=C/c1c(C(=O)O)[nH]c2cc(Cl)cc(Cl)c12)Nc1ccc(C(=O)O)cc1",
    "Ki, µM": 0.0631
  },
  {
    "testSmiles": "O=C(/C=C/c1c(C(=O)[O-])[nH]c2cc(Cl)cc(Cl)c12)NCc1ccccc1.[Na+]",
    "Ki, µM": 0.126
  },
  {
    "testSmiles": "O=C(/C=C/c1c(C(=O)O)[nH]c2cc(Cl)cc(Cl)c12)Nc1ccc(Nc2ccccc2)cc1",
    "Ki, µM": 0.2
  },
  {
    "testSmiles": "O=C(CCc1c(C(=O)[O-])[nH]c2cc(Cl)cc(Cl)c12)Nc1ccccc1.[Na+]",
    "Ki, µM": 0.0251
  },
  {
    "testSmiles": "O=C(/C=C/c1c(C(=O)O)[nH]c2cc(Cl)cc(Cl)c12)Nc1ccc(O)cc1",
    "Ki, µM": 0.002
  }
]

(P) Nc1ccc(NC(=O)/C=C/c2c(C(=O)O)[nH]c3cc(Cl)cc(Cl)c23)cc1
(Q) O=C(O)c1cc2c(Cl)cc(Cl)cc2[nH]1
(R) O=C(/C=C/c1c(C(=O)O)[nH]c2cc(Cl)cc(Cl)c12)Nc1ccc(F)cc1
Input line: Reorder: Ki, max to min. Reply with the item labels sorted in the order that was asked for.
Output line: Q, R, P
(Q: 2 µM, R: 0.00631 µM, P: 0.00126 µM)

---

assayTarget: Glutamate receptor ionotropic, NMDA 1 (Rattus norvegicus)
testProtocol: Inhibition of [3H]glycine to glycine binding site, associated with the N-methyl-D-aspartate glutamate receptor 1 in crude synaptic membranes prepared from adult rat cerebral cortex.
measureName: Ki (nM)

Sample records with Ki:
[
  {
    "molecule": "O=C(/C=C/c1c(C(=O)O)[nH]c2cc(Cl)cc(Cl)c12)Nc1ccc(C(F)(F)F)cc1",
    "unitAbbrev": "nM",
    "measuredValue": 158
  },
  {
    "molecule": "O=C(/C=C/c1c(C(=O)O)[nH]c2cc(Cl)cc(Cl)c12)Nc1ccc(F)cc1[N+](=O)[O-]",
    "unitAbbrev": "nM",
    "measuredValue": 31.6
  },
  {
    "molecule": "O=C(O)CCc1c(C(=O)[O-])[nH]c2cc(Cl)cc(Cl)c12.[Na+]",
    "unitAbbrev": "nM",
    "measuredValue": 39.8
  },
  {
    "molecule": "O=C(/C=C/c1c(C(=O)[O-])[nH]c2cc(Cl)cc(Cl)c12)Nc1ccccc1.[Na+] [GAVESTINEL SODIUM]",
    "unitAbbrev": "nM",
    "measuredValue": 3.16
  },
  {
    "molecule": "CN(C)c1ccc(NC(=O)/C=C/c2c(C(=O)O)[nH]c3cc(Cl)cc(Cl)c23)cc1",
    "unitAbbrev": "nM",
    "measuredValue": 12.6
  },
  {
    "molecule": "O=C(/C=C/c1c(C(=O)O)[nH]c2cc(Cl)cc(Cl)c12)Nc1ccc([N+](=O)[O-])cc1",
    "unitAbbrev": "nM",
    "measuredValue": 100
  }
]

(P) Nc1cccc(NC(=O)/C=C/c2c(C(=O)O)[nH]c3cc(Cl)cc(Cl)c23)c1
(Q) O=C(O)c1[nH]c2cc(Cl)cc(Cl)c2c1/C=C/S(=O)(=O)Nc1ccccc1
(R) CCN(CC)c1ccc(NC(=O)/C=C/c2c(C(=O)O)[nH]c3cc(Cl)cc(Cl)c23)cc1
(S) O=C(/C=C/c1c(C(=O)O)[nH]c2cc(Cl)cc(Cl)c12)Nc1cccc([N+](=O)[O-])c1O
Input line: # ascending order, key=Ki Dear reader, please state the labels in the requested order.
Output line: P, S, R, Q
(P: 5.01 nM, S: 10 nM, R: 100 nM, Q: 794 nM)
